All values here come from patent US20240279318A1.

tested-on: T1, AFP158/HLA-A*02:01 complex (human)
T1 construct: flowed as analyte in SPR
experiment-summary: SPR, crude scFv captured, pMHC analyte;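 further: Peptide-MHC complex at several concentrations passed over captured scFv, association then buffer-driven dissociation, on- and off-rates fitted from the curves and KD estimated from them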
The binders listed here are annotated with their kon.
quantity-name: kon (M⁻¹ s⁻¹)

binder	assay-value
AS170036 VL1VH1-VLH98Q (scFv) scFv: QSALTQPRSVSGSPGQSVTISCAGTSSDVGSENYVSWYQQHPGKAPKLMIYQVNKRASGVPDRFSGSKSGNTASLTISGLQAEDEADYYCASYRSSDQNIVFGGGTKLTVLGGGGSGGGGSGGGGSEVQLVESGGGLVQPGGSLRLSCAASGFTFSSYAMSWVRQAPGKGLEWVSTINSGTGSPYYADSVKGRFTISRDNSKNTLYLQMNSLRAEDTAVYYCAKNFFDGSWFLGPPAMDYWGQGTLVTVSSHHHHHH	220000
AS170036 VL1VH1-VLH98P (scFv) scFv: QSALTQPRSVSGSPGQSVTISCAGTSSDVGSENYVSWYQQHPGKAPKLMIYQVNKRASGVPDRFSGSKSGNTASLTISGLQAEDEADYYCASYRSSDPNIVFGGGTKLTVLGGGGSGGGGSGGGGSEVQLVESGGGLVQPGGSLRLSCAASGFTFSSYAMSWVRQAPGKGLEWVSTINSGTGSPYYADSVKGRFTISRDNSKNTLYLQMNSLRAEDTAVYYCAKNFFDGSWFLGPPAMDYWGQGTLVTVSSHHHHHH	240000
AS170036 VL1VH1-VHG108N (scFv) scFv: QSALTQPRSVSGSPGQSVTISCAGTSSDVGSENYVSWYQQHPGKAPKLMIYQVNKRASGVPDRFSGSKSGNTASLTISGLQAEDEADYYCASYRSSDHNIVFGGGTKLTVLGGGGSGGGGSGGGGSEVQLVESGGGLVQPGGSLRLSCAASGFTFSSYAMSWVRQAPGKGLEWVSTINSGTGSPYYADSVKGRFTISRDNSKNTLYLQMNSLRAEDTAVYYCAKNFFDGSWFLNPPAMDYWGQGTLVTVSSHHHHHH	330000
AS170036 VL1VH1-VHG108S (scFv) scFv: QSALTQPRSVSGSPGQSVTISCAGTSSDVGSENYVSWYQQHPGKAPKLMIYQVNKRASGVPDRFSGSKSGNTASLTISGLQAEDEADYYCASYRSSDHNIVFGGGTKLTVLGGGGSGGGGSGGGGSEVQLVESGGGLVQPGGSLRLSCAASGFTFSSYAMSWVRQAPGKGLEWVSTINSGTGSPYYADSVKGRFTISRDNSKNTLYLQMNSLRAEDTAVYYCAKNFFDGSWFLSPPAMDYWGQGTLVTVSSHHHHHH	270000
AS170036 VL1VH1-VLH98I (scFv) scFv: QSALTQPRSVSGSPGQSVTISCAGTSSDVGSENYVSWYQQHPGKAPKLMIYQVNKRASGVPDRFSGSKSGNTASLTISGLQAEDEADYYCASYRSSDINIVFGGGTKLTVLGGGGSGGGGSGGGGSEVQLVESGGGLVQPGGSLRLSCAASGFTFSSYAMSWVRQAPGKGLEWVSTINSGTGSPYYADSVKGRFTISRDNSKNTLYLQMNSLRAEDTAVYYCAKNFFDGSWFLGPPAMDYWGQGTLVTVSSHHHHHH	230000
